Consider the following MIC values measured on Streptococcus pyogenes EES61.
All answers are understood in µg/mL, so give the number only.

Ask: For Streptococcus pyogenes EES61, give MIC of the listed compound: CC[C@H]1OC(=O)[C@H](C)C(=O)[C@H](C)[C@@H](O[C@@H]2O[C@H](C)C[C@H](N(C)C)[C@H]2O)[C@](C)(OC/C=C/c2ccc3ncc(Br)cc3c2)C[C@@H](C)C(=O)[C@H](C)[C@H]2NC(=O)O[C@@]21C [Example 38]
Result: 0.02

Ask: For Streptococcus pyogenes EES61, give MIC of the listed compound: CC[C@H]1OC(=O)[C@H](C)C(=O)[C@H](C)[C@@H](O[C@@H]2O[C@H](C)C[C@H](N(C)C)[C@H]2O)[C@](C)(OC/C=C/c2cncc(-c3ccccn3)c2)C[C@@H](C)C(=O)[C@H](C)[C@H]2NC(=O)O[C@@]21C [Example 43]
Result: 0.02

Ask: For Streptococcus pyogenes EES61, give MIC of the listed compound: CC[C@H]1OC(=O)[C@H](C)C(=O)[C@H](C)[C@@H](O[C@@H]2O[C@H](C)C[C@H](N(C)C)[C@H]2O)[C@](C)(OC/C=C/c2cncc(-c3cncc4ccccc34)c2)C[C@@H](C)C(=O)[C@H](C)[C@H]2NC(=O)O[C@@]21C [Example 48]
Result: 0.05

Ask: For Streptococcus pyogenes EES61, give MIC of the listed compound: CC[C@H]1OC(=O)[C@H](C)C(=O)[C@H](C)[C@@H](O[C@@H]2O[C@H](C)C[C@H](N(C)C)[C@H]2O)[C@](C)(OC/C=C/c2ccc(-c3ccco3)s2)C[C@@H](C)C(=O)[C@H](C)[C@H]2NC(=O)O[C@@]21C [Example 77]
Result: 0.05

Ask: For Streptococcus pyogenes EES61, give MIC of the listed compound: CC[C@H]1OC(=O)[C@H](C)C(=O)[C@H](C)[C@@H](O[C@@H]2O[C@H](C)C[C@H](N(C)C)[C@H]2O)[C@](C)(OC/C=C/c2cncc(-c3ccsc3)c2)C[C@@H](C)C(=O)[C@H](C)[C@H]2NC(=O)O[C@@]21C [Example 49]
Result: 0.02
